Reported Growth Rate values follow for various compounds
Test system: Fibroblast
Assay: Incucyte cell viability with human fibroblast; note: filed as whole numbers so only -1 and 0 and 1 occur
Type: toxicity, cell-based
Conditions: 12 h, 10 µM, compound concentration 10 uM, replicate number 1, timepoint 12 hours
// return a plain number; no unit text

[
  {
    "compound": "CN(C)CCCN1c2ccccc2CCc2ccccc21.Cl [IMIPRAMINE HYDROCHLORIDE]",
    "property": "Growth Rate",
    "value.reported": 0
  },
  {
    "compound": "CCCCC#Cc1nc(NC)c2ncn([C@@H]3O[C@H](CO)[C@@H](O)[C@H]3O)c2n1",
    "property": "Growth Rate",
    "value.reported": 1
  },
  {
    "compound": "Cl.NC[C@@H]1O[C@H](C23CC4CC(CC(C4)C2)C3)Cc2c1ccc(O)c2O",
    "property": "Growth Rate",
    "value.reported": 0
  },
  {
    "compound": "CCOP(=O)(OCC)C(=Cc1cc(C(C)(C)C)c(O)c(C(C)(C)C)c1)P(=O)(OCC)OCC",
    "property": "Growth Rate",
    "value.reported": 0
  },
  {
    "compound": "c1cc(CN2CCCNCCNCCCNCC2)ccc1CN1CCCNCCNCCCNCC1",
    "property": "Growth Rate",
    "value.reported": 0
  },
  {
    "compound": "OCCn1cc(-c2ccc3c(c2)CCC3=NO)c(-c2ccncc2)n1",
    "property": "Growth Rate",
    "value.reported": 1
  },
  {
    "compound": "CC[C@@H]1C(=O)N(C)c2cnc(Nc3ccc(C(=O)NC4CCN(C)CC4)cc3OC)nc2N1C1CCCC1",
    "property": "Growth Rate",
    "value.reported": 1
  }
]

Now consider the entry below.
Task: I would be grateful if you could share the reported Growth Rate for `C[C@H](NC(=O)Nc1cc2[nH]ncc2c(CO)n1)c1ccccn1` .
Result: 0

====

Tested on: HEK-293T
Assay: Multiplex assay against HEK293T
Type: toxicity, cell-based
Details: human, 24 h, 10 µM, compound concentration 10 uM, replicate 1
property: Population Normal (%)
Just the number please, in %, no unit attached.

// worked examples, Population Normal (%) included
[
  {
    "compound": "Oc1cccc(-c2nc(N3CCOCC3)c3oc4ncccc4c3n2)c1",
    "u": "%",
    "value.reported": 82
  },
  {
    "compound": "CC(Cc1ccc(O)c(O)c1)C(C)Cc1ccc(O)c(O)c1 (stereo unspecified) [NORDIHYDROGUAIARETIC ACID]",
    "u": "%",
    "value.reported": 92
  },
  {
    "compound": "Cc1ccc(S(=O)(=O)NC2c3ccccc3Oc3ccccc32)cc1",
    "u": "%",
    "value.reported": 89
  },
  {
    "compound": "Cl.Cn1c2c(c3ccc(Cl)c(Cl)c31)C(C#N)C1(CCNCC1)NC2=O (stereo unspecified)",
    "u": "%",
    "value.reported": 80
  },
  {
    "compound": "CCCCN(CC)c1nc(C)nc2c1c(C)cn2-c1c(C)cc(C)cc1C.Cl",
    "u": "%",
    "value.reported": 90
  }
]

Task: Endpoint output: Population Normal (%) of `CCOC(=O)CCNc1cc(N2CCc3ccccc3CC2)nc(-c2ccccn2)n1` . Value?
Result: 81

Task: Follow-up entry: `Cc1c(P(=S)(c2ccccc2)c2ccccc2)n2ccccc2[n+]1C/C=C/c1ccccc1.[Br-]`
Result: 78

Task: Same lookup for `CC[C@@]1(O)C(=O)OCc2c1cc1n(c2=O)Cc2cc3ccccc3nc2-1` , please.
Result: 92

Task: Also `CN(c1cc(C(F)(F)F)nc(OCCC(=O)O)n1)c1cccc2c1CCC2` , if possible.
Result: 88

Task: Input CN1C(=O)[C@@H](NC(=O)c2cc3ccccc3[nH]2)N=C(c2ccccc2)c2ccccc21 [DEVAZEPIDE]
Result: 82

Task: Same thing, different compound: `CCCc1cc(C)[nH]c(=O)c1CNC(=O)c1cc(-c2ccc(N3CCN(C(C)C)CC3)nc2)cc2c1cnn2C(C)C`
Result: 80
